tested on: NCI/ADR-RES ovarian; assay: NCI tumour cell line growth inhibition, 48 h; in the data active means GI50 below about 0.43 µM; inactive means the rest
Choose the fitting class; nothing outside Yes = active, No = inactive is accepted.

COc1ccc(S(=O)(=O)Nc2c(/C=C\c3cc(OC)c(OC)c(OC)c3)ccc(OC)c2O)cc1; Yes

Task: Test call for this molecule, please: COc1ccc(-c2cc(-c3ccc(Cl)cc3)nc(NCCCCNc3ccnc4cc(Cl)ccc34)n2)cc1
Result: No

Task: Test call for this molecule, please: c1ccc(-c2n(Cc3ccc4ccccc4c3)c3ccccc3[n+]2Cc2ccc3ccccc3c2)cc1
Result: No

Task: Test call for this molecule, please: CCOc1ccc(C(C[N+](=O)[O-])Sc2ccccc2N)cc1 (stereo not given)
Result: No

Task: Test call for this molecule, please: COc1ccc2c(O)c(/C=C3\N=Nc4ncccc43)oc2c1C[C@@H]1CCNC[C@H]1F
Result: No

The measured values listed here are drawn from PubChem BioAssay (NCI).
